Measured relative β-galactosidase activity, inducer Ci, listed per entry.
# Tested on: lacZ under control of the tetA promoter (PtetA) in E. coli KM3
# Type: cell-based
# MEASUREMENT_CONDITIONS: Table 4; chlorimuron 20 ppm; 48 hrs at 30° C.
VALUE_TYPE: relative β-galactosidase activity, inducer Ci

{"columns": ["MOLECULE", "RECORDED_NUMBER"],
 "data": [
  ["L1-22: SU-responsive TetR(B) variant, library L1 hit, SEQ ID NO: 7 (protein, Sulfornylurea responsive repressor L1-22) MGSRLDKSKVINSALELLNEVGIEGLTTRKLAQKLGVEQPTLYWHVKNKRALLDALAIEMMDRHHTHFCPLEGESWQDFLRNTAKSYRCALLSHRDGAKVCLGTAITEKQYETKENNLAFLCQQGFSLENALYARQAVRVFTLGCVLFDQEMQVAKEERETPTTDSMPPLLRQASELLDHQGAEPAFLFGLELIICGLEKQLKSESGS", 10.4],
  ["L1-7: SU-responsive TetR(B) variant, library L1 hit, SEQ ID NO: 4 (protein, Sulfonylurea responsive repressor L1-07) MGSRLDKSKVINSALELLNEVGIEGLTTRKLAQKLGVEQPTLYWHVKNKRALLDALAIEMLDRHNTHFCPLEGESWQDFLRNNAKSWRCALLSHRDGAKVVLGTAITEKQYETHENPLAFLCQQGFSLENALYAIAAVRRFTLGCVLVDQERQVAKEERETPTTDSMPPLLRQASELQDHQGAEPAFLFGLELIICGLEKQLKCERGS", 16.5],
  ["L1-29: SU-responsive TetR(B) variant, library L1 hit, SEQ ID NO: 10 (protein, Sulfonylurea responsive repressor L1-29) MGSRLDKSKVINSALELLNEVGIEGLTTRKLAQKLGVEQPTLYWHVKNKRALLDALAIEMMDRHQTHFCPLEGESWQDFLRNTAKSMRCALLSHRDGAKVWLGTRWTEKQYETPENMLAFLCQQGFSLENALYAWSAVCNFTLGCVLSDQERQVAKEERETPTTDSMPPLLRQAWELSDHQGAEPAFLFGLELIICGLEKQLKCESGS", 20.9]
]}
